# Target entity: Agg-1 (Homo sapiens, UniProt O75173)
# Sequence (O75173 213-837): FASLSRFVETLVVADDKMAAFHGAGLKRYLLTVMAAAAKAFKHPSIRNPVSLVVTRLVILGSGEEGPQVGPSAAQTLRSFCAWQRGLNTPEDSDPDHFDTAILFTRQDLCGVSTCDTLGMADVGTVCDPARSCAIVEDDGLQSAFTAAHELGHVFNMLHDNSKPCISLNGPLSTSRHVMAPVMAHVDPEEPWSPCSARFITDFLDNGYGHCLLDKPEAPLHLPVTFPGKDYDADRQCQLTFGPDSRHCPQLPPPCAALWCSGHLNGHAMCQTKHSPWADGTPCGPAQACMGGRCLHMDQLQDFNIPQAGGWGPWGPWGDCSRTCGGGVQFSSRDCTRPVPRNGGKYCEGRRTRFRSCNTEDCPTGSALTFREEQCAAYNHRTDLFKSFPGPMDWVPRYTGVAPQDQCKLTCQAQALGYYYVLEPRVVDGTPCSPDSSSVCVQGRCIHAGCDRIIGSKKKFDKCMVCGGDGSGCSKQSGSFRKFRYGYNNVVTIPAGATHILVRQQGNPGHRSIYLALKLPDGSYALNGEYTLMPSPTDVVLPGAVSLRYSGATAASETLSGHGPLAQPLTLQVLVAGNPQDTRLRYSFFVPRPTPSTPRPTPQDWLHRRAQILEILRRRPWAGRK
# Protocol description: Agg-1 FRET assay
# Assay type: biochemical
# Cond: @ 800 nM; read-out: Agg1 %
Catalogue of compounds with associated inhibition at 0.8 µM
Return type: number; implicit unit %.

Worked cases, inhibition at 0.8 µM given:
>  <Compound>
C/C=C/C(NC(=O)COc1ccccc1)c1cc(Cl)c2cccnc2c1O (stereo not shown) [Example 187]

>  <inhibition at 0.8 µM (%)>
40

$$$$
>  <Compound>
C=CC(NC(=O)COc1ccccc1)c1cc(Cl)c2cccnc2c1O (stereo not shown) [Example 186]

>  <inhibition at 0.8 µM (%)>
50

$$$$
>  <Compound>
CCC/C=C/C(NC(=O)COc1ccccc1)c1cc(Cl)c2cccnc2c1O (stereo not shown)

>  <inhibition at 0.8 µM (%)>
30

$$$$

Then this compound:
Query :: In one line, give reported inhibition at 0.8 µM of the entry O=C(COc1ccccc1)NC(c1cc(Cl)c2cccnc2c1O)c1cccc2[nH]ccc12 (stereo not shown) .
Result :: 41

* * *

# Target entity: Agg-1 (Homo sapiens, UniProt O75173)
# Protocol description: Agg-1 FRET assay
# Assay type: biochemical
# Cond: % inhibition @ 66.7 μM; read-out: Agg-1 IC50 (μM) or % Inhibition
Catalogue of inhibition at 66.7 µM values
Number only, in %; omit the unit.

Below: 3 molecules and their reported inhibition at 66.7 µM.
>  <Molecule>
Cc1ccc(-c2cccc(C(Cc3cc(Cl)c4cccnc4c3O)NC(=O)COc3ccccc3)c2)s1 (stereo not shown)

>  <inhibition at 66.7 µM / %>
42

$$$$
>  <Molecule>
Cc1ccc(-c2cccc(C(Cc3cc(Cl)c4cccnc4c3O)NC(=O)COCc3ccccc3)c2)s1 (stereo not shown)

>  <inhibition at 66.7 µM / %>
48

$$$$
>  <Molecule>
Cc1ccc(-c2cccc(C(Cc3cc(Cl)c4cccnc4c3O)NC(=O)C(C)(C)Oc3ccc(Cl)cc3)c2)s1 (stereo not shown)

>  <inhibition at 66.7 µM / %>
47

$$$$

Query :: Check the records and state inhibition at 66.7 µM for CC(C)(Oc1ccc(Cl)cc1)C(=O)NC(Cc1cc(Cl)c2cccnc2c1O)c1cccc(CN2CCCC2)c1 (stereo not shown)
Result :: 50

* * *

# Target entity: recombinant human Aggrecanase-2 Agg2-Phe628 (Homo sapiens, UniProt Q9UNA0)
# Sequence (Q9UNA0 262-628 limits assumed): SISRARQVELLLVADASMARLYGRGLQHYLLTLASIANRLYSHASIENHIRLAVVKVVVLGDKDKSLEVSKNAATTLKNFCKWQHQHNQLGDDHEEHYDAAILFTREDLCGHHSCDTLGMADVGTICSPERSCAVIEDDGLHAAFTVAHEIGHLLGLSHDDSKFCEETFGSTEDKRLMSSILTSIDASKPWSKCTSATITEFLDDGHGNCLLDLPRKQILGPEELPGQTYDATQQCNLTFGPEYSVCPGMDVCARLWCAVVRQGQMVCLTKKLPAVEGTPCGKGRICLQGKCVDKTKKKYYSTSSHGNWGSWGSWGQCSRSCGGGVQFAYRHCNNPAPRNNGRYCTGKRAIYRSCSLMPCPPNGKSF
# Protocol description: Aggrecanase 2 in vitro enzyme assay (Agg-2 FRET, quenched fluorescent peptide substrate)
# Assay type: biochemical
# Set-up: purified recombinant human Aggrecanase-2 Agg2-Phe628 (MW=41,737); This is a truncated form of full-length human aggrecanase-2; made in house; host or cells: CHO cells
# Cond: read-out: Agg2 IC50
Observable: IC50

These recorded examples may help you get a feel for the data.
>  <Compound>
O=C(COc1ccccc1)NC(c1ccc(-c2ccccc2)cc1)c1cc(Cl)c2cccnc2c1O (stereo not shown)

>  <IC50>
5400 nM

$$$$
>  <Compound>
CC1(C)CCc2cc(C(NC(=O)COc3ccccc3)c3cc(Cl)c4cccnc4c3O)ccc2O1 (stereo not shown) [Example 171]

>  <IC50>
1400 nM

$$$$
>  <Compound>
O=C(COc1ccccc1)NC(c1cccc([N+](=O)[O-])c1)c1cc(Cl)c2cccnc2c1O (stereo not shown)

>  <IC50>
1230 nM

$$$$
>  <Compound>
O=C(NC(c1ccccc1)c1cc(Cl)c2cccnc2c1O)OCc1ccccc1 (stereo not shown)

>  <IC50>
> 67000 nM

$$$$
>  <Compound>
O=C(COc1ccccc1)NC(c1ccccc1Cl)c1cc(Cl)c2cccnc2c1O (stereo not shown)

>  <IC50>
1550 nM

$$$$
>  <Compound>
O=C(CNCc1ccccc1)NC(c1ccccc1)c1cc(Cl)c2cccnc2c1O (stereo not shown) [Example 223]

>  <IC50>
3750 nM

$$$$
>  <Compound>
O=C(COc1ccccc1)N[C@@H](c1ccccc1Cl)c1cc(Cl)c2cccnc2c1O

>  <IC50>
970 nM

$$$$
>  <Compound>
CS(=O)(=O)Nc1cccc(C(NC(=O)COc2ccccc2)c2cc(Cl)c3cccnc3c2OS(C)(=O)=O)c1 (stereo not shown) [Example 203]

>  <IC50>
> 30000 nM

$$$$

Now look at this one.
Query :: Assign IC50 to the following record: O=C(COc1ccccc1)NC(CCc1ccccc1)c1cc(Cl)c2cccnc2c1O (stereo not shown)
Result :: 1700 nM

Taken from patent US20080269213A1.
